- systemUnderTest: T1, VSTM5 monomer (UniProt A8MXK1 29-147, limits assumed)
- T1 construct: also called monomeric VSTM5 antigen; VSTM5 antigen
- T1 sequence (looked up): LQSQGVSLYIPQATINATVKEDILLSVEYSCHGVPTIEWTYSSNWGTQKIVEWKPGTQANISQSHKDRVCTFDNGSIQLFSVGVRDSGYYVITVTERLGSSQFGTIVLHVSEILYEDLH
- assayProtocol: SPR, VSTM5 monomer binding to the IgG
measuredQuantity: Kd (nM)
Numbers only, in nM.

Any idea what its Kd is? The binder is 47-01.D05 (antibody, V domains shown) VH: QITLKESGPTLVKPTQTLTLTCTFSGFSLSTSGVGVGWIRQPPGKALEWLALIYWDDDKRYSPSLKSRLTITKDTSKNQVVLTMTNMDPVDTATYYCAHSGSVGYALYFDYWGQGTLVTVSS VL: QAVLTQPPSSSASPGESARLTCTLPSDINVRYYNIYWYQQKPGSPPRYLLYYQSDSHKGRGSGVPSRFSGSKDTSANTGILLISGLQSEDEADYYCMIWASNGSGVLGGGTQLTVLG
60.7
